- Test system: SNB-19 CNS
- Measurement Notes: NCI-60 one-dose screen, 48 h
- Condition Description: 10 µM unless noted
Compounds without any hit were thinned out: in the full panel of roughly 83,000, 20% have a hit. Calls of active or inactive are those of the source. The calls were made as follows: active = growth percent below 10; inactive = the rest.
Labels: active, inactive

Molecule: CCCCCCCCCCCCOC(=O)/C=C\C(=O)NC(N)=O
Group: inactive
//
Molecule: N#Cc1ccc(OCc2nc(N)nc(N)c2-c2ccc(Cl)c(Cl)c2)cc1
Group: inactive
//
Molecule: CCC(C)[C@H](NC(=O)Nc1cc(C(F)(F)F)cc(C(F)(F)F)c1)C(=O)N[C@@H](Cc1cn(C)cn1)C(=O)OC (some centres undefined)
Group: active
//
Molecule: CCCCCCN(CCCCCC)CCC(=O)Nc1ccc(S(=O)(=O)c2ccc(NC(=O)CCN(CCCCCC)CCCCCC)cc2)cc1
Group: inactive
//
Molecule: O=C(O)COc1ccc([N+](=O)[O-])cc1Cl
Group: inactive
//
Molecule: O=C1c2cc([N+](=O)[O-])ccc2-c2cc(Cl)c(NC(=O)C(F)(F)F)cc21
Group: inactive
//
Molecule: C/C=C(/C)C(=O)OC1C=C(CO)C(=O)C(OC(=O)C2(C)OC2C)C1C(C)C (centres undefined)
Group: inactive
//
Molecule: CC(=O)OCC1O[C@@H](OC(C)=O)[C@@H](NC(=O)NS(=O)(=O)c2ccccc2)C(OC(C)=O)[C@@H]1OC(C)=O (some centres undefined)
Group: inactive
//
Molecule: O=C(Cc1ccccc1[N+](=O)[O-])c1ccc2c(c1)OCO2
Group: inactive

----------
- Test system: A549/ATCC NSCLC
- Measurement Notes: NCI-60 one-dose screen, 48 h (100 = growth as untreated, 0 = no growth, -100 = all killed)
- Condition Description: 10 µM unless noted
This is part of a sample that, as a whole, favours compounds with a hit. Of some 83,000 tested, about 20% had one in any assay.
molecules and their reported growth

Molecule: CCC(CCCN1C(=O)c2ccccc2C1=O)Nc1cc(OC)cc2c(C)ccnc12 (centres undefined)
Unit Descriptor: %
growth: 103

Molecule: COc1ccc(OC)c(Cn2cc3c(c2)-c2oncc2CC3)c1
Unit Descriptor: %
growth: 43.3

Molecule: COc1ccc(-c2nc(SCC(C)C)nc(Nc3ccccc3)c2C#N)cc1
Unit Descriptor: %
growth: 48

Molecule: O=C(Nc1ccc(Cl)cn1)C1(c2ccccc2)CCCCC1
Unit Descriptor: %
growth: 110

Molecule: Nc1nc2c(c3cnccc13)C(c1ccc(Cl)c(Cl)c1)Cc1cnccc1-2 (centres undefined)
Unit Descriptor: %
growth: -24.7

Molecule: Oc1ccccc1\C=N/N=C/C=C/c1ccccc1
Unit Descriptor: %
growth: 105

Molecule: Cc1nnc(/N=C2\NC(=O)/C(=C/C=C/c3ccccc3)S2)s1
Unit Descriptor: %
growth: 39.8

Molecule: O=C(Nc1ccc(-n2cc(-c3ccncc3)c(-c3ccc(Cl)c(O)c3)n2)cc1)c1cc(C(F)(F)F)cc(C(F)(F)F)c1
Unit Descriptor: %
growth: 52.2

Molecule: COc1cc2c(c3c1c(=O)c1cccc(F)c1n3C)C=CC(C)(C)O2
Unit Descriptor: %
growth: 89.4

Molecule: COC(=O)c1ccc2[nH]c(O)c(C(=Nc3ccc(N(C)C(=O)CN4CCN(C)CC4)cc3)c3ccc(CCO)cc3)c2c1
Unit Descriptor: %
growth: 95.4

Molecule: O=C(O)c1occ(Cl)c1Cl
Unit Descriptor: %
growth: 97.8

Molecule: C/C(=N\Nc1ccc(Cl)cn1)c1ccccn1
Unit Descriptor: %
growth: 6.73

Molecule: CCc1c(C)c2ccc(OCC(=O)N=Nc3c(O)[nH]c4ccccc34)c(C)c2oc1=O
Unit Descriptor: %
growth: 30.2

Molecule: O=C1Nc2c(c(=O)n(-c3ccccc3)c3ccccc23)C(c2ccc(Cl)cc2)N1 (centres undefined)
Unit Descriptor: %
growth: 76.2

Molecule: COc1ccc(CN2C(=O)/C(=C\C(=O)c3ccc(OCCN4CCCC4)cc3)c3ccccc32)cc1
Unit Descriptor: %
growth: 97.2

Molecule: OCC(O)C(O)CC1SCCS1 (centres undefined)
Unit Descriptor: %
growth: 101

Molecule: CCCNC(=O)Oc1ccc(/C(=C(/C)Cc2ccc(OC)cc2)c2ccc(OCCN3CCCC3)cc2)cc1
Unit Descriptor: %
growth: 71.8

Molecule: COc1cc(-c2nc3c(c(C)nc4c3nnn4-c3ccccc3)c(=O)o2)cc(OC)c1OC
Unit Descriptor: %
growth: 112

Molecule: CCOC(=O)c1c(C)oc2ncnc(Nc3ccc(C(=O)NCCc4ccccc4)cc3)c12
Unit Descriptor: %
growth: 56.6

Molecule: O=C(Nc1ccccc1)Nc1ccc(Nc2ncnc3sc4c(c23)CCCC4)cc1
Unit Descriptor: %
growth: 73.9

Molecule: Clc1ccc(I)c2ccccc12
Unit Descriptor: %
growth: 108

Molecule: COC(=O)c1ccc(C(=Nc2ccc(N(C)C(=O)CN3CCN(C)CC3)cc2)c2c(O)[nH]c3ccc(C(=O)OC)cc23)cc1
Unit Descriptor: %
growth: 35.6

Molecule: COC(=O)C(Cc1cnc[nH]1)N1CC(=O)N2[C@@H](c3ccccc3)SC[C@H]2C1=O (some centres undefined)
Unit Descriptor: %
growth: 96.4

Molecule: Cc1[nH]n(C(=S)Nc2nc3cc(Cl)c(F)cc3s2)c(=O)c1N=Nc1ccc(F)c(Cl)c1
Unit Descriptor: %
growth: 40.1

Molecule: C/C=C/C/C=C/[C@H](C)C[C@H](O)[C@@H]1C[C@@H]2O[C@H]2/C=C/[C@H](O)[C@@H](O)/C=C/C[C@H](C)CC(=O)O1
Unit Descriptor: %
growth: 71.8

Molecule: Cc1ccc(S(=O)(=O)Nc2cccc(Cn3c(=O)[nH]c4ccc(Oc5ncccn5)cc4c3=O)c2)cc1
Unit Descriptor: %
growth: 90.7

Molecule: COc1ccc(CN2C(=O)/C(=C\C(=O)c3ccc(OCCN4CCCCC4)cc3)c3ccccc32)cc1
Unit Descriptor: %
growth: 96.4

Molecule: COc1cc(-c2cc3cnccc3c3nc(N)c4ccncc4c23)cc(OC)c1OC
Unit Descriptor: %
growth: 42.5

Molecule: COc1cc(-c2c3c(cn2CCN2CCCCC2)-c2oncc2CC3)cc(OC)c1OC
Unit Descriptor: %
growth: 101

Molecule: CCOC(=O)c1cc(C(=O)c2ccc(Br)cc2)n2cc(C)cc(C)c12
Unit Descriptor: %
growth: 75.7

Molecule: Cn1c2ccccc2c2ccccc21
Unit Descriptor: %
growth: 108

Molecule: O=C(CCCC(=O)Nc1ccc(Cn2nnc3cc(Cl)c(Cl)cc32)cc1)Nc1ccc(CN2N=NC3C=C(Cl)C(Cl)=CC32)cc1 (centres undefined)
Unit Descriptor: %
growth: 74.5

Molecule: COc1cc2ncnc(-n3ncc4cc(NC(=O)Nc5ccc(Cl)c(Cl)c5)ccc43)c2cc1OC
Unit Descriptor: %
growth: 0.341

Molecule: CNCCCNCCCCNCCCN1C(=O)c2ccc3c4c(ccc(c24)C1=O)C(=O)N(CCCNCc1ccccc1OC)C3=O
Unit Descriptor: %
growth: 21.6

Molecule: Cc1ccc(S(=O)(=O)N/N=C2\CC3CCC2C3)cc1 (centres undefined)
Unit Descriptor: %
growth: 105

Molecule: Oc1ccc(CN(Cc2ccc(C(F)(F)F)cc2)Cc2ccc(O)c3ncccc23)c2cccnc12
Unit Descriptor: %
growth: 1.19

Molecule: O=S(=O)(Cc1cccc2c(CS(=O)(=O)c3ccc(Cl)cc3)cccc12)c1ccc(Cl)cc1
Unit Descriptor: %
growth: 84.3

Molecule: O=C1OC(c2ccc(-c3ccccc3)cc2)=C/C1=C/c1c2ccccc2cc2ccccc12
Unit Descriptor: %
growth: 25.8

Molecule: Cc1ncc(C(=O)Nc2ccc(CN3CCN(C)CC3)c(C(F)(F)F)c2)cc1C#Cc1c(N)ncc2ccc(F)cc12
Unit Descriptor: %
growth: -69.9
